EXPERIMENTAL SYSTEM: recombinant variant E. indica PPO1 A212T (Eleusine indica, UniProt A0A6G5XNV7, A212T)
ASSAY DETAILS: In vitro PPO enzyme activity inhibition, variant PPO1 A212T
Type: biochemical
MEASUREMENT NAME: IC50 (nM)
The answer is to be given in nM; state only the numeric part.

- COMPOUND: "CC(C)N(C)S(=O)(=O)NC(=O)c1cc(-n2c(=O)cc(C(F)(F)F)n(C)c2=O)c(F)cc1Cl"
  IC50, nM: 449
- COMPOUND: "C#CCN1C(=O)COc2cc(F)c(N3C(=O)C4=C(CCCC4)C3=O)cc21"
  IC50, nM: 13.4

Name the recorded IC50 for CCOC(=O)C(C)OC(=O)c1cc(Oc2ccc(C(F)(F)F)cc2Cl)ccc1[N+](=O)[O-] (centres unmarked) .
362

Name the recorded IC50 for `Cc1nn(-c2cc(NS(C)(=O)=O)c(Cl)cc2Cl)c(=O)n1C(F)F` .
1870

###

inhibition at 10 µM overview
EXPERIMENTAL SYSTEM: recombinant variant E. indica PPO1 A212T (Eleusine indica, UniProt A0A6G5XNV7, A212T)
ASSAY DETAILS: In vitro PPO enzyme activity inhibition, variant PPO1 A212T
Format: biochemical
TEST CONDITIONS: read-out: Variant E. indica PPO1 A212T % inhibition
The answer is to be given in %; state only the numeric part.

- LINE NOTATION: "Cc1nn(-c2cc(NS(C)(=O)=O)c(Cl)cc2Cl)c(=O)n1C(F)F"
  UNITS: "%"
  inhibition at 10 µM: 76

Name the recorded inhibition at 10 µM for `CC(C)Oc1cc(-n2nc(C(C)(C)C)oc2=O)c(Cl)cc1Cl` .
16

###

Parameter estimate b of sigmoidal model y = a/(1 + exp(−(x − x0)/b)) for percent injury overview
System: Eleusine indica biotypes (S, R1, R2)
ASSAY DETAILS: Herbicide rate screening assay (greenhouse, foliar-applied, visual injury)
Format: in vivo
TEST CONDITIONS: S biotype; x = log-transformed herbicide rate (kg/ha); 14 DAT
Procedure: Three E. indica biotypes from different locations were used in this study. The R1 biotype was collected in Country Club of Virginia, Richmond, Va., and the R2 biotype was from River Bend Golf, New Bern, N.C. […] The visual injury rating scores per plant at 14 days after treatment (DAT) were recorded, where the visual injury rating scores were based on a 0 to 100 scale, which 0 is equated to no phytotoxicity and 100 is equated to complete control. […]
Give your answer as a number; write no unit.

Below are worked cases with known answers.
- COMPOUND: "CC(C)Oc1cc(-n2nc(C(C)(C)C)oc2=O)c(Cl)cc1Cl"
  QUANTITATIVE RESULT: 0.25
- COMPOUND: "C#CCN1C(=O)COc2cc(F)c(N3C(=O)C4=C(CCCC4)C3=O)cc21"
  QUANTITATIVE RESULT: 0.02
- COMPOUND: "CCOC(=O)C(C)OC(=O)c1cc(Oc2ccc(C(F)(F)F)cc2Cl)ccc1[N+](=O)[O-] (stereo not shown)"
  QUANTITATIVE RESULT: 0.13

// below: Parameter estimate b of sigmoidal model y = a/(1 + exp(−(x − x0)/b)) for percent injury requested for another compound
Name the recorded Parameter estimate b of sigmoidal model y = a/(1 + exp(−(x − x0)/b)) for percent injury for `Cc1nn(-c2cc(NS(C)(=O)=O)c(Cl)cc2Cl)c(=O)n1C(F)F` .
0.16

###

EXPERIMENTAL SYSTEM: recombinant wild-type E. indica PPO1 (Eleusine indica, UniProt A0A6G5XNV7)
Sequence (A0A6G5XNV7 1-529): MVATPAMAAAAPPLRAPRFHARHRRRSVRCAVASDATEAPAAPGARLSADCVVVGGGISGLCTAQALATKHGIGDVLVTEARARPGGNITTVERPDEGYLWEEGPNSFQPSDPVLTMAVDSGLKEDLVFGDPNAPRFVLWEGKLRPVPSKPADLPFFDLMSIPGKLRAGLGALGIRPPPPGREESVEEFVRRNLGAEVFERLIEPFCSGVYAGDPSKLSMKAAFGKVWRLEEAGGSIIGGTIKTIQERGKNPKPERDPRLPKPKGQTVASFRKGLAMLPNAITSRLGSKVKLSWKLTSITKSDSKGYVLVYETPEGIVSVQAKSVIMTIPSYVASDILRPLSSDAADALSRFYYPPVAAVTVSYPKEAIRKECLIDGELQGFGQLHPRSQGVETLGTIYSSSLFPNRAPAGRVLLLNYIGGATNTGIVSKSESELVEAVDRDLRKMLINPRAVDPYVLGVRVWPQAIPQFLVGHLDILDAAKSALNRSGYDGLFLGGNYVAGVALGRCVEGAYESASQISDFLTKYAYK
ASSAY DETAILS: In vitro PPO enzyme activity inhibition, wild-type PPO1
Format: biochemical
Description: Effects of A212T substitution were studied using the E. indica backbone. The wild-type E. indica PPO1 and the E. indica PPO1 A212T variants were synthesized de novo and subcloned into pRSetB plasmid (Invitrogen, Carlsbad, Calif.). The complete description of expression and purification of E. indica PPO1 and E. indica PPO1 A212T variant proteins were referenced to the method described for PPO2 by Rangani et al. (2019, Frontiers in Plant Sci., 10:568). […]
MEASUREMENT NAME: pIC50
# pIC50: negative log10 of molar concentration; output just the value

Below are worked cases with known answers.
- MOLECULE: "CCOC(=O)C(C)OC(=O)c1cc(Oc2ccc(C(F)(F)F)cc2Cl)ccc1[N+](=O)[O-] (stereo not shown)"
  pIC50: 7.58
- MOLECULE: "CC(C)Oc1cc(-n2nc(C(C)(C)C)oc2=O)c(Cl)cc1Cl"
  pIC50: 7.61
- MOLECULE: "Cc1nn(-c2cc(NS(C)(=O)=O)c(Cl)cc2Cl)c(=O)n1C(F)F"
  pIC50: 6.56

API: value(readout= pIC50, system= recombinant wild-type E. indica PPO1 (Eleusine indica, UniProt A0A6G5XNV7), query= `C#CCN1C(=O)COc2cc(F)c(N3C(=O)C4=C(CCCC4)C3=O)cc21` )
7.78

###

Parameter estimate x0 of sigmoidal model y = a/(1 + exp(−(x − x0)/b)) for percent injury overview
Test system: Eleusine indica biotypes (S, R1, R2)
ASSAY DETAILS: Herbicide rate screening assay (greenhouse, foliar-applied, visual injury)
Type: in vivo
TEST CONDITIONS: R2 biotype; x = log-transformed herbicide rate (kg/ha); 14 DAT
Give your answer as a number; write no unit.

Below are worked cases with known answers.
- COMPOUND: "CC(C)Oc1cc(-n2nc(C(C)(C)C)oc2=O)c(Cl)cc1Cl"
  EXPERIMENTAL SYSTEM: "Eleusine indica biotypes (S, R1, R2)"
  QUANTITATIVE RESULT: 3.99
- COMPOUND: "Cc1nn(-c2cc(NS(C)(=O)=O)c(Cl)cc2Cl)c(=O)n1C(F)F"
  EXPERIMENTAL SYSTEM: "Eleusine indica biotypes (S, R1, R2)"
  QUANTITATIVE RESULT: "−0.73"

Name the recorded Parameter estimate x0 of sigmoidal model y = a/(1 + exp(−(x − x0)/b)) for percent injury for CCOC(=O)C(C)OC(=O)c1cc(Oc2ccc(C(F)(F)F)cc2Cl)ccc1[N+](=O)[O-] (stereo not shown) .
−1.31

Name the recorded Parameter estimate x0 of sigmoidal model y = a/(1 + exp(−(x − x0)/b)) for percent injury for `C#CCN1C(=O)COc2cc(F)c(N3C(=O)C4=C(CCCC4)C3=O)cc21` .
−1.11

###

EXPERIMENTAL SYSTEM: recombinant variant E. indica PPO1 A212T (Eleusine indica, UniProt A0A6G5XNV7, A212T)
ASSAY DETAILS: In vitro PPO enzyme activity inhibition, variant PPO1 A212T
Type: biochemical
TEST CONDITIONS: read-out: Variant E. indica PPO1 A212T % inhibition
Protocol: Effects of A212T substitution were studied using the E. indica backbone. The wild-type E. indica PPO1 and the E. indica PPO1 A212T variants were synthesized de novo and subcloned into pRSetB plasmid (Invitrogen, Carlsbad, Calif.). […] Six PPO inhibitors, belonging to five different chemical families, were evaluated on the PPO enzyme activity at a concentrations ranging from 5.00×10^−5M to 5.12×10^−12M. […]
MEASUREMENT NAME: inhibition at 10 µM

Name the recorded inhibition at 10 µM for `C#CCN1C(=O)COc2cc(F)c(N3C(=O)C4=C(CCCC4)C3=O)cc21` .
> 90%

Name the recorded inhibition at 10 µM for `CC(C)N(C)S(=O)(=O)NC(=O)c1cc(-n2c(=O)cc(C(F)(F)F)n(C)c2=O)c(F)cc1Cl` .
> 90%

Name the recorded inhibition at 10 µM for CCOC(=O)C(C)OC(=O)c1cc(Oc2ccc(C(F)(F)F)cc2Cl)ccc1[N+](=O)[O-] (stereo not drawn) .
> 90%
